Each recorded value in this set is attributed to the supplement of paper PMC10126150.

- System: ATP;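 also: ATP exposure 15 min at 22 °C before imaging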
- experiment.notes: switch fluorescence ratio, 500 uM ATP over buffer (Cy3 cluster intensity, sum of 5 cycles each) (fold (ratio)); higher = stronger signal-on switching upon ATP binding; sequences stand for … in TCGTCGGCAGCGTCAGATGTGTATAAGAGACAGTTTTTTTTTTTTTTTTTTTTTTTTT…TC
- test.settings: aptamer strand: ATP DNA aptamer (quencher-CACCTGGGGGAGTATTGCGGAGGAAGG + anchor), 100 nM annealed; ATP concentration: 500 uM
Kindly return condition met if reported switch fluorescence ratio is no lower than 1; return condition not met if it is lower.

| sequence.input | class.name |
| --- | --- |
| TAAACAGCTG | condition not met |
| CGGATTTCAG | condition not met |
| ATGATGGGGC | condition not met |
| AGTTGTGGGC | condition not met |
| GCGAGGAATC | condition met |

----------
- Test system: ATP;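 also: ATP exposure 15 min at 22 °C before imaging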
- experiment.notes: switch fluorescence ratio, 500 uM ATP over buffer (Cy3 cluster intensity, sum of 5 cycles each) (fold (ratio)); higher = stronger signal-on switching upon ATP binding; sequences stand for … in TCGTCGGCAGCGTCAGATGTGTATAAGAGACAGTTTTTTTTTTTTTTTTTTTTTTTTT…TC
- test.settings: aptamer strand: ATP DNA aptamer (quencher-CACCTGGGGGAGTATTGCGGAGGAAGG + anchor), 100 nM annealed; ATP concentration: 500 uM
Consider the following sequences and their measured switch fluorescence ratio readings.
reported.property: switch fluorescence ratio

| sequence.input | observed.measurement |
| --- | --- |
| GGCATAAGTA | 1.01 |
| CATACTTCAT | 1.05 |
| GATGGGCTTT | 0.983 |
| TCTTGTAAGT | 0.992 |
| GATTGTAGGT | 1 |
| TTTCAATAGG | 1.01 |
| AGGTAGGAAG | 0.999 |
| GGGGATTCAA | 0.988 |
| CGTGTGGAAA | 1.02 |
| GCGTATTGCT | 0.993 |
| ACTTGTAATT | 0.997 |
| TATATTATGC | 1.02 |
| TTTTCATGTG | 0.995 |
| GTGGGAGTTT | 1.01 |
| AGGGTAAGGA | 1.09 |
| GAGAAATCTT | 1.01 |
| AAAAAGCGGT | 0.984 |
| CATAAAATCG | 0.967 |
| CAGGGGGCTA | 1.01 |
| GTTAATTTGC | 0.984 |

----------
- Test system: ATP;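 also: ATP exposure 15 min at 22 °C before imaging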
- experiment.notes: switch fluorescence ratio, 500 uM ATP over buffer (Cy3 cluster intensity, sum of 5 cycles each) (fold (ratio)); higher = stronger signal-on switching upon ATP binding; sequences stand for … in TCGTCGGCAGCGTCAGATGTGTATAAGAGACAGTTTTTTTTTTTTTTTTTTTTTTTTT…TC
- test.settings: aptamer strand: ATP DNA aptamer (quencher-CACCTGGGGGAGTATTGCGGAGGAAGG + anchor), 100 nM annealed; ATP concentration: 500 uM
Parameter: switch fluorescence ratio. Scope: all listed entries.
reported.property: switch fluorescence ratio

| sequence.input | observed.measurement |
| --- | --- |
| TGGTGGGGAG | 1.01 |
| GGTTGGGGGT | 1.01 |
| GAGCTCAAGT | 0.991 |
| AGATTTTCGC | 1 |
| TGTAAAGGGT | 0.978 |
| AAAATGGCGT | 0.969 |
| TGACTCACGG | 1.08 |
| CTATGGGGGT | 0.997 |
| CAGTATCCTT | 1.03 |
| GGGGTGGTTG | 0.986 |
| AACCCGGGGT | 0.99 |
| GAAAGGGCTC | 1.09 |
| GGGGGATTTC | 1.12 |
| TTATAGTATG | 0.99 |
| ATTTTGAAGA | 1.01 |
| GGTTGCGGCA | 1.01 |
| AGCTTCGTTC | 1.01 |
| ACCTAGCGCA | 1.33 |
| GATGGATCGA | 0.977 |
| CAAAACCTGA | 1.2 |
| GGTGCGGGGT | 0.983 |
| GGATCTTTAT | 0.993 |
| AATACGTATA | 1.1 |
| CTGTGCTAAT | 1.1 |
| GGGAATTCTA | 0.991 |
| ACTACTGCTG | 1.05 |
| GACGAAGATC | 1.11 |
| TAAATAGTGG | 0.987 |
| GATTTGGAGT | 0.985 |
| CAATGGGAG | 0.988 |
| TTATTAGACG | 0.976 |
| TGGAGCCTTT | 1.1 |
| CCATTCTTGG | 0.977 |
| AGGGTGACAG | 0.957 |
| GACGTCAGAT | 0.977 |
| TGGCTGACTT | 1.01 |
| TATTGTTATG | 1 |
| TTTAAGATAT | 1.09 |
| TTTGACATGT | 0.975 |
| TTGTTGGAAT | 1 |
| TAATTAATAT | 1 |
| ATCCCGGGAT | 1 |
| GATAAAAGGC | 0.997 |

----------
- Test system: ATP;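 also: ATP exposure 15 min at 22 °C before imaging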
- experiment.notes: switch fluorescence ratio, 500 uM ATP over buffer (Cy3 cluster intensity, sum of 5 cycles each) (fold (ratio)); higher = stronger signal-on switching upon ATP binding; sequences stand for … in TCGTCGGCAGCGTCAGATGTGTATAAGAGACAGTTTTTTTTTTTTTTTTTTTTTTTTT…TC
- test.settings: aptamer strand: ATP DNA aptamer (quencher-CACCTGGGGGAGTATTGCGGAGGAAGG + anchor), 100 nM annealed; ATP concentration: 500 uM

| sequence.input | switch fluorescence ratio |
| --- | --- |
| GGTGGGTATA | 1 |
| CGTGCCCGGA | 1.03 |
| GGGTCAGCTG | 0.986 |
| GGGTGTATTT | 1.02 |
| AAGTTTTTCG | 1.01 |
| TGTTAGGGGC | 0.98 |
| TTTATAAAGA | 1.02 |
| AATATGGGTG | 1.08 |
| ATCGAATATT | 0.983 |
| GAGAGTGCGG | 1.04 |
| GTGGTGGGGG | 0.992 |
| TTATACAGTG | 1 |
| ATAGTTTG | 0.977 |
| CTAATAGTT | 1 |
| CGGCGGCCCT | 1.01 |
| GTTGGGTGTG | 1.02 |
| ATTTTGAATC | 0.973 |
| AAAATGGTAT | 1.01 |
| TATTATGGCG | 1.04 |
| TAATCGGGCG | 1.02 |
| GTATGGGTTT | 0.975 |
| ACATGATAGT | 1.01 |
| GTTTCAAGCG | 1.02 |
| CATGGTAGGA | 0.975 |
| TCTCTACTGG | 1.03 |
| TGAGCAGCGG | 1.01 |
| TGTATGAACT | 0.98 |
| TTGGTGGCTT | 0.968 |
| TCGCTAATTG | 1.04 |
| GCTTGGGGCA | 0.967 |
| GGGAAGGTTG | 1.04 |
| TATGATAGGC | 0.953 |
| GGGTATTGGT | 0.996 |
| ATGATGGGCC | 1 |
| ATGAGGGGCT | 0.986 |
| ATTGGTGAGG | 0.988 |
| GGGTGTACTT | 0.991 |
| GGTGCTTGGT | 0.989 |
| AATGTAGGCT | 1.03 |
| CATCTTGGAA | 1.01 |
| TAGGTAGGGG | 0.99 |
| GAATGGTCCC | 1.02 |
| AGGGGTAAAA | 1 |

----------
- Tested on: ATP;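 also: ATP exposure 15 min at 22 °C before imaging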
- experiment.notes: switch fluorescence ratio, 500 uM ATP over buffer (Cy3 cluster intensity, sum of 5 cycles each) (fold (ratio)); higher = stronger signal-on switching upon ATP binding; sequences stand for … in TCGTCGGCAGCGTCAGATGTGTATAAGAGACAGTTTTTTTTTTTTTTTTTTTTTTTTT…TC
- test.settings: aptamer strand: ATP DNA aptamer (quencher-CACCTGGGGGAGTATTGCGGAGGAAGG + anchor), 100 nM annealed; ATP concentration: 500 uM

| sequence.input | switch fluorescence ratio |
| --- | --- |
| TTTTGTTAGA | 1.03 |
| ACCAACCGT | 1.16 |
| GCGAAAGTTG | 1.01 |
| TGTGAAAAGT | 0.996 |
| TCTGTCTAGT | 1.01 |
| AGGTATTGCG | 0.994 |
| TAGAAGCCTG | 1.03 |
| TAGGGACTAG | 1.02 |
| AAAGTGTTTC | 0.986 |
| TCAAGTGGGG | 1.01 |
| GGAATTTAAT | 0.998 |
| GACGGGGATG | 1.03 |
| CCTGGCAGCG | 1.05 |
| TTAAACGCGG | 1.05 |
| TTAGAGTGGA | 0.968 |
| TATGTTTGGC | 1 |
| GCATAGCGCC | 1.04 |
| TAATCCACGG | 1.05 |
| GAAGAGGGGG | 0.991 |
| GAAATTGGGA | 1.08 |
| AGATCGACGC | 1.19 |
| CAATGAGCCG | 1.02 |
| GTGTCAAAGA | 0.984 |
| TAATTATTTT | 1.01 |
| GAGATAAGCC | 1.03 |
| GAAATGTCGG | 1.02 |
| ACTTGGGGGT | 1.02 |
| CTATCCGGAC | 1.25 |
| CGGGTTCAGA | 1.05 |
| CTACCGCCTA | 1.39 |
| AAAATGCGGA | 0.995 |
| ACGGGCAGGG | 1.03 |
| CATGGCCTGA | 0.977 |
| TTCTTTCGCG | 0.947 |
| GGGGTGAGGT | 0.997 |
| AGGTGTGGCT | 1 |
| TGATTTGAAG | 0.946 |
| CTAGATTTGA | 1 |
| CTAACTTATT | 1.01 |
| TTTATATAGA | 0.996 |
| TTAATCGGTT | 1 |
| TAGGGTATGA | 1.01 |
| GATTTTAGTA | 1.01 |
| TGGGAGGTTT | 1.05 |
| GTTTAGCTGT | 0.995 |
| GTAATTTAGT | 1.02 |
| GTAGGGTCAG | 0.994 |
| AACGAGTGAG | 1.01 |
| CAGGCAGATG | 1.01 |
| GGCTTGGAAA | 0.973 |
| TCGCGGCAAT | 3.06 |
| CAAGTTGTGT | 0.977 |
| TTTGAGGAAG | 1.01 |
| AACATCTAGA | 0.965 |
| TAGGGGGAGC | 1.01 |
| AGGAGAGGTG | 1.1 |
| CACGAGTTGG | 1.01 |
| GAGTTAGGCA | 1.03 |
| TAAAGGTAGT | 1 |
| AGTTCGGCGT | 0.999 |
| GTGAAAGGCA | 1 |
| GAGTTAGTGT | 1.03 |
| TCATGAGCCA | 1.04 |
| GGGAAAAGGA | 1.02 |
| TGGAGGTCGC | 1.01 |
| GTAATAATTT | 0.998 |
| CGGACGAAAG | 1.02 |
| TTCTATATTG | 0.996 |
| TAGATTTGTT | 1.01 |
| ATTACCGGCG | 0.996 |
| CTGTGGCGCT | 1.01 |
| TGCTGGGGAT | 1.01 |
| TTGGAGGAGA | 1.03 |
| TCATGTACGT | 1.06 |
| TGGCAGTTTT | 1.02 |
| GGAGATAGGT | 1.04 |
| CAGGGATAGT | 1.26 |
| TTCGGGTTTA | 0.994 |
| AATGTGCGTT | 0.993 |
| CCTGGGGGC | 1.1 |
| TGCCGTCGGC | 0.949 |
| GGGTATCCTT | 1.01 |
| TTTAGTGCTT | 0.997 |
| CGGGTCGCTT | 0.974 |
| TGGGTCAGGT | 0.999 |
| TGGGTTAGTA | 0.984 |
